# assayed-target: T1, human MerTK on human macrophages (human, UniProt Q12866 21-999)
# T1 sequence: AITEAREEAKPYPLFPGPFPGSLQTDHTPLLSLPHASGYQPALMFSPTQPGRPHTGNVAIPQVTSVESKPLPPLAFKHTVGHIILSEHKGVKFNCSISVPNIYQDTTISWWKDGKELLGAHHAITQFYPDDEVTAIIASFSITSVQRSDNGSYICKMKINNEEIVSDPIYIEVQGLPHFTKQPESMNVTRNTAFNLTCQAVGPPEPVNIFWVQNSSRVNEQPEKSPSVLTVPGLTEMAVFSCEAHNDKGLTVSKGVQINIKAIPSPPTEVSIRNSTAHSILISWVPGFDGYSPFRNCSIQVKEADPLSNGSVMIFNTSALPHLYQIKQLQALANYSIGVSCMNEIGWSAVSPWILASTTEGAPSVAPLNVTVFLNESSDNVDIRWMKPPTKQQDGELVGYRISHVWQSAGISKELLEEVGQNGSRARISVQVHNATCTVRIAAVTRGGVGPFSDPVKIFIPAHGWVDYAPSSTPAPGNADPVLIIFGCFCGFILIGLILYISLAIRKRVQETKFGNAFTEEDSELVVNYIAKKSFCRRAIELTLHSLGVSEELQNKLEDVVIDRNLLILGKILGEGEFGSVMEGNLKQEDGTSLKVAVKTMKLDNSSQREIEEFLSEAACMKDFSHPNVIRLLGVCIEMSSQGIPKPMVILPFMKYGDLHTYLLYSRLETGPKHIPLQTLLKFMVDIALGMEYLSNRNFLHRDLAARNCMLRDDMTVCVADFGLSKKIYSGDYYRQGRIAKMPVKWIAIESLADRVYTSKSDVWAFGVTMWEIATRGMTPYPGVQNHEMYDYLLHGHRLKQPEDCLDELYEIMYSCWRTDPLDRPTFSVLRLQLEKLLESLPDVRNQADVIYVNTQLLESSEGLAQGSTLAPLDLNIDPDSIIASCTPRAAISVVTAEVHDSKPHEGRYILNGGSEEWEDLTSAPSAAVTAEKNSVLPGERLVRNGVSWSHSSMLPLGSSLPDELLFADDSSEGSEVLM
# protocol-text: cell-based or functional assay
property-measured: Max Inhibition (%), efferocytosis by human macrophages, Donor A

binder | value-reported
h9E3.FN.v16 (antibody, V domains shown, Humanized, human IgG1; also called 9E3.FN Humanized polished mAb) VH: EVQLVESGGGLIQPGGSLRLSCAASGFSLSSNAMSWVRQAPGKGLEWVSIISSSGSTYSASWAKGRFTISKDNSKNTLYLQMNSLRAEDTAVYYCARVGFFVGYGAYDYGIIHRLDLWGQGTLVTVSS VL: DIQLTQSPSTLSASVGDRVTITCQSSKSIYNNNWLSWYQQKPGKPPKLLIYDASDLASGVPSRFSGSGSGTEFTLTISSLQPDDFATYYCAGGYSGDSDYAFGGGTKVEIK | 58
h10F7.v16 (antibody, V domains shown, Humanized, human IgG1; also called 10F7 Fully Humanized; 10F7 Humanized polished mAb) VH: EVQLVESGGGLVQPGGSLRLSCAVSGFSLSGYAMSWVRQAPGKGLEYIGVISSSGSSYYPSWAKGRFTISKDNSKNTLYLQMGSLRAEDMAVYYCARVQFYVGYAVYGYGIIDRLDLWGQGTLVTVSS VL: DIVLTQSPDSLAVSLGERATINCQSSKSVYNNNWLSWYQQKPGQPPKLLIYRASTLESGVPDRFSGSGSGTDFTLTISSLQAEDVAVYFCAGGYSSSSSANAFGGGTKVEIK | 76
h10C3.v14 (antibody, V domains shown, Humanized, human IgG1; also called 10C3 Humanized polished mAb) VH: EVQLVESGGGLVQPGGSLRLSCAASGFSLSGYTMGWVRQAPGKGLEYIGVISSGGTTYYTNWAKGRFTISKDNSKNTLYLQMGSLRAEDMAVYYCARVAFTAYGGGGFPTLHRLDLWGQGTLVTVSS VL: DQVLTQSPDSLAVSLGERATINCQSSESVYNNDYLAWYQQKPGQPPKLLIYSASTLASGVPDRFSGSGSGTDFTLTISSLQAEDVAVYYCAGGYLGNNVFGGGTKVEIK | 64
h13B4.v16 (antibody, V domains shown, Humanized, human IgG1; also called 13B4 Fully Humanized; 13B4 Humanized polished mAb) VH: EVQLVESGEGLVQPGGSLRLSCAASGFSLSSYAMGWVRQAPGKGLEYVGIINSYGNTYYANWAKGRFTISRDNSKNTVYLQMGSLRAEDMAVYYCARDPGVSSNLWGRGTLVTVSS VL: DIQMTQSPSTLSASVGDRVTITCQASQNIYSGLAWYQQKPGKAPKLLIYGASKLASGVPSRFSGSGSGTEFTLTISSLQPDDFATYYCQATYYSSNSVAFGGGTKVEIK | 91
